- Test system: LYN;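 further: KINOMEscan kinase panel screen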
- runParameters: concentration: 1 μM,replicates: in singlicate; n = 1
%Inh reference
Don't forget the unit after the number, please.

Take a look at these entries with their results.
[[record]]
molecule = "Cl.Cl.NC[C@H](CC1CCCCC1)NC(=O)c1cc(Br)c(-c2ccnc3[nH]ccc23)s1"
systemname = "LYN"
result = "0%"

[[record]]
molecule = "CC(C)N1C(=O)Cc2cc(Nc3ncc(C(F)(F)F)c(NCc4cccc(S(C)(=O)=O)c4)n3)ccc21"
systemname = "LYN"
result = "17%"

[[record]]
molecule = "Cc1ccc(-n2nc(C(C)(C)C)cc2NC(=O)Nc2ccc(OCCN3CCOCC3)c3ccccc23)cc1"
systemname = "LYN"
result = "22%"


Now take the following molecule into account.
q: Return %Inh measured with LYN given this molecule: CN(C)CC(O)COc1ccc(Nc2nccc(-c3cnn4nc(N5CCOCC5)ccc34)n2)cc1 (stereo not shown)
a: 0%
